Ref: ChEMBL document CHEMBL3734657

Molecular target: Substance-P receptor (Cavia porcellus)
Assay: Agonist activity at neurokinin-1 receptor in Hartley guniea pig isolated ileum/Longitudinal Muscle with Myenteric Plexus assessed as inhibition of electrically-stimulated muscle contraction at 30 nM
Format: tissue-based
Active and inactive are the calls of the source. The rule behind the calls is not given here.

{"SMILES NOTATION": "Cc1cc(O)cc(C)c1C[C@H](N)C(=O)N[C@@H](C)C(=O)NCC(=O)N(C)[C@@H](Cc1ccccc1)C(=O)N1CCC[C@H]1C(=O)N[C@@H](CC(C)C)C(=O)N[C@@H](Cc1c[nH]c2ccccc12)C(=O)NCc1cc(C(F)(F)F)cc(C(F)(F)F)c1", "Activity": "inactive"}
{"SMILES NOTATION": "CC(C)C[C@H](NC(=O)[C@@H]1CCCN1C(=O)[C@H](Cc1ccc(F)cc1)NC(=O)CNC(=O)[C@H](C)NC(=O)[C@@H](N)Cc1ccc(O)cc1)C(=O)N[C@@H](Cc1c[nH]c2ccccc12)C(=O)NCc1cc(C(F)(F)F)cc(C(F)(F)F)c1", "Activity": "inactive"}
{"SMILES NOTATION": "Cc1cc(O)cc(C)c1C[C@H](N)C(=O)N[C@@H](C)C(=O)NCC(=O)N[C@@H](Cc1ccc(F)cc1)C(=O)N1CCC[C@H]1C(=O)N[C@@H](CC(C)C)C(=O)N[C@@H](Cc1c[nH]c2ccccc12)C(=O)NCc1cc(C(F)(F)F)cc(C(F)(F)F)c1", "Activity": "inactive"}
{"SMILES NOTATION": "Cc1cc(O)cc(C)c1C[C@H](N)C(=O)N[C@@H](C)C(=O)NCC(=O)N(C)[C@@H](Cc1ccc(F)cc1)C(=O)N1CCC[C@H]1C(=O)N[C@@H](CC(C)C)C(=O)N[C@@H](Cc1c[nH]c2ccccc12)C(=O)NCc1cc(C(F)(F)F)cc(C(F)(F)F)c1", "Activity": "inactive"}

---

Assay: Half-life in rat plasma at 50 ug/ml by RP-HPLC assay
Format: ADME, cell-free
REPORTED METRIC: half-life at 50 ug/ml

The molecule "Cc1cc(O)cc(C)c1C[C@H](N)C(=O)N[C@H](C)C(=O)NCC(=O)N[C@@H](Cc1ccc(F)cc1)C(=O)N1CCC[C@H]1C(=O)N[C@@H](CC(C)C)C(=O)N[C@@H](Cc1c[nH]c2ccccc12)C(=O)NCc1cc(C(F)(F)F)cc(C(F)(F)F)c1" showed half-life at 50 ug/ml equal to > 12 h

---

Target: Mu-type opioid receptor (Homo sapiens, UniProt P35372)
Sequence (P35372 whole entry): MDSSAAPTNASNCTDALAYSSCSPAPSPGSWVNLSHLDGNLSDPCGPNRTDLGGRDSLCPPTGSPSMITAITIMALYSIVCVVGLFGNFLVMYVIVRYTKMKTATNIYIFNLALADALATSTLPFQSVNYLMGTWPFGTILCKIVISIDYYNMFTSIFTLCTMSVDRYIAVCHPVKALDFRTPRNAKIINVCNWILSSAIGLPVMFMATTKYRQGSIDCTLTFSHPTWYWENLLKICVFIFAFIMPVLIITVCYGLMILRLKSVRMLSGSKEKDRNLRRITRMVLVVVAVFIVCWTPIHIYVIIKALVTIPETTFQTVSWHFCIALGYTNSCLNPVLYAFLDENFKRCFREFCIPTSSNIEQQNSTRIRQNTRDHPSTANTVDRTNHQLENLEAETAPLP
Test: Binding affinity to mu opioid receptor (unknown origin)
REPORTED METRIC: pIC50
// scale note: pIC50 = -log10(conc_M); give the bare number

{"SMILES NOTATION": "Cc1cc(O)cc(C)c1C[C@H](N)C(=O)N[C@H](C)C(=O)NCC(=O)N[C@@H](Cc1ccc(Cl)cc1)C(=O)N1CCC[C@H]1C(=O)N[C@@H](CC(C)C)C(=O)N[C@@H](Cc1c[nH]c2ccccc12)C(=O)NCc1cc(C(F)(F)F)cc(C(F)(F)F)c1", "TEST SYSTEM": "Mu-type opioid receptor (Homo sapiens, UniProt P35372)", "pIC50": 8.33}

pIC50 for Mu-type opioid receptor (Homo sapiens, UniProt P35372) with input "Cc1cc(O)cc(C)c1C[C@H](N)C(=O)N[C@H](C)C(=O)NCC(=O)N[C@@H](Cc1ccc(Br)cc1)C(=O)N1CCC[C@H]1C(=O)N[C@@H](CC(C)C)C(=O)N[C@@H](Cc1c[nH]c2ccccc12)C(=O)NCc1cc(C(F)(F)F)cc(C(F)(F)F)c1" equals 7.96

Mu-type opioid receptor (Homo sapiens, UniProt P35372) pIC50 of "Cc1cc(O)cc(C)c1C[C@H](N)C(=O)N[C@H](C)C(=O)NCC(=O)N(C)[C@@H](Cc1ccc(F)cc1)C(=O)N1CCC[C@H]1C(=O)N[C@@H](CC(C)C)C(=O)N[C@@H](Cc1c[nH]c2ccccc12)C(=O)NCc1cc(C(F)(F)F)cc(C(F)(F)F)c1" is 8.55

"CC(C)C[C@H](NC(=O)[C@@H]1CCCN1C(=O)[C@H](Cc1ccccc1)NC(=O)CNC(=O)[C@@H](C)NC(=O)[C@@H](N)Cc1ccc(O)cc1)C(=O)N[C@@H](Cc1c[nH]c2ccccc12)C(=O)NCc1cc(C(F)(F)F)cc(C(F)(F)F)c1" on Mu-type opioid receptor (Homo sapiens, UniProt P35372) gives pIC50 = 7.70

pIC50 of "Cc1cc(O)cc(C)c1C[C@H](N)C(=O)N[C@H](C)C(=O)NCC(=O)N[C@@H](Cc1ccc(I)cc1)C(=O)N1CCC[C@H]1C(=O)N[C@@H](CC(C)C)C(=O)N[C@@H](Cc1c[nH]c2ccccc12)C(=O)NCc1cc(C(F)(F)F)cc(C(F)(F)F)c1" , assay on Mu-type opioid receptor (Homo sapiens, UniProt P35372), is 7.88

Note to self: pIC50 of "CC(C)C[C@H](NC(=O)[C@@H]1CCCN1C(=O)[C@H](Cc1ccccc1)N(C)C(=O)CNC(=O)[C@@H](C)NC(=O)[C@@H](N)Cc1ccc(O)cc1)C(=O)N[C@@H](Cc1c[nH]c2ccccc12)C(=O)NCc1cc(C(F)(F)F)cc(C(F)(F)F)c1" with Mu-type opioid receptor (Homo sapiens, UniProt P35372) was 7.05

---

Recorded remaining at 50 ug/ml for the following compounds
Assay: Metabolic stability in rat plasma assessed as compound remaining at 50 ug/ml […] by RP-HPLC assay
Format: ADME, cell-free
Conditions: read-out: Stability
Express your answer in %, writing the number without its unit.

Look over these answered cases.
{"SMILES NOTATION": "Cc1cc(O)cc(C)c1C[C@H](N)C(=O)N[C@H](C)C(=O)NCC(=O)N[C@@H](Cc1ccc(F)cc1)C(=O)N1CCC[C@H]1C(=O)N[C@@H](CC(C)C)C(=O)N[C@@H](Cc1c[nH]c2ccccc12)C(=O)NCc1cc(C(F)(F)F)cc(C(F)(F)F)c1", "READING UNIT": "%", "READING": 100}
{"SMILES NOTATION": "CC(C)C[C@H](NC(=O)[C@@H]1CCCN1C(=O)[C@H](Cc1ccc(F)cc1)NC(=O)CNC(=O)[C@@H](C)NC(=O)[C@@H](N)Cc1ccc(O)cc1)C(=O)N[C@@H](Cc1c[nH]c2ccccc12)C(=O)NCc1cc(C(F)(F)F)cc(C(F)(F)F)c1", "READING UNIT": "%", "READING": 100}

# input for lookup
Kindly note the recorded remaining at 50 ug/ml for "Cc1cc(O)cc(C)c1C[C@H](N)C(=O)N[C@H](C)C(=O)NCC(=O)N(C)[C@@H](Cc1ccccc1)C(=O)N1CCC[C@H]1C(=O)N[C@@H](CC(C)C)C(=O)N[C@@H](Cc1c[nH]c2ccccc12)C(=O)NCc1cc(C(F)(F)F)cc(C(F)(F)F)c1" , which is 100

---

Target: Mu-type opioid receptor (Homo sapiens, UniProt P35372)
Assay: Binding affinity to mu opioid receptor (unknown origin)
Reported pIC50 values for a set of molecules
Remember, pIC50 is on a log scale: it is -log10 of the molar concentration.

{"SMILES NOTATION": "CC(C)C[C@H](NC(=O)[C@@H]1CCCN1C(=O)[C@H](Cc1ccc(F)cc1)NC(=O)CNC(=O)[C@@H](C)NC(=O)[C@@H](N)Cc1ccc(O)cc1)C(=O)N[C@@H](Cc1c[nH]c2ccccc12)C(=O)NCc1cc(C(F)(F)F)cc(C(F)(F)F)c1", "REPORTED METRIC": "pIC50", "READING": 8.08}
{"SMILES NOTATION": "Cc1cc(O)cc(C)c1C[C@H](N)C(=O)N[C@H](C)C(=O)NCC(=O)N[C@@H](Cc1ccc(F)cc1)C(=O)N1CCC[C@H]1C(=O)N[C@@H](CC(C)C)C(=O)N[C@@H](Cc1c[nH]c2ccccc12)C(=O)NCc1cc(C(F)(F)F)cc(C(F)(F)F)c1", "REPORTED METRIC": "pIC50", "READING": 8.72}
{"SMILES NOTATION": "Cc1cc(O)cc(C)c1C[C@H](N)C(=O)N[C@H](C)C(=O)NCC(=O)N[C@@H](Cc1ccccc1)C(=O)N1CCC[C@H]1C(=O)N[C@@H](CC(C)C)C(=O)N[C@@H](Cc1c[nH]c2ccccc12)C(=O)NCc1cc(C(F)(F)F)cc(C(F)(F)F)c1", "REPORTED METRIC": "pIC50", "READING": 8.63}

Okay, next one:
For this molecule ( "Cc1cc(O)cc(C)c1C[C@H](N)C(=O)N[C@H](C)C(=O)NCC(=O)N(C)[C@@H](Cc1ccccc1)C(=O)N1CCC[C@H]1C(=O)N[C@@H](CC(C)C)C(=O)N[C@@H](Cc1c[nH]c2ccccc12)C(=O)NCc1cc(C(F)(F)F)cc(C(F)(F)F)c1" ), measured pIC50 is 8.78
